target: Fyn (UniProt P06241); assay: phosphorylation enrichment, bacterial display (enrichment ratio); higher = better substrate or ligand; peptides without Tyr show the background
Sequence (P06241 whole entry, looked up): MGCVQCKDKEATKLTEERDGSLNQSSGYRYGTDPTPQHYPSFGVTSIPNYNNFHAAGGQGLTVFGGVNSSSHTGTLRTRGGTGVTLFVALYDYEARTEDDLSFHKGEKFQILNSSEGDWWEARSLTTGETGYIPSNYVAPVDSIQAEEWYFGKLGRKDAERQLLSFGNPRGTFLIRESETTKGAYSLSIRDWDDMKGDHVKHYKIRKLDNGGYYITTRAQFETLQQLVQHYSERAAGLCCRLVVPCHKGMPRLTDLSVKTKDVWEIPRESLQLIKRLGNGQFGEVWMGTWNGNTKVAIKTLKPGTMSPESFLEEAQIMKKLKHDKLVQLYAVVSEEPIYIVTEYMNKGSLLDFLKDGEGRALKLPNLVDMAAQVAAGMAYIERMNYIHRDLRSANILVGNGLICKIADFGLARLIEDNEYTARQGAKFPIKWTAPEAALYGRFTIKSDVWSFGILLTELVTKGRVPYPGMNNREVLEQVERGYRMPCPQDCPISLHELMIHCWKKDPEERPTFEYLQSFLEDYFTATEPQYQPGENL
Observed property: phosphorylation enrichment

INSERT INTO results (primary_sequence, observed_property, reading) VALUES
  ('RQQQDYWLIDV [ANPEP_Y600]', 'phosphorylation enrichment', 0.847),
  ('QEGPEYWDEET [HLA-A_Y83_Q86E]', 'phosphorylation enrichment', 1.02),
  ('IHHIDYYKKTT [FGFR1_Y653]', 'phosphorylation enrichment', 0.381),
  ('EVEFEYPFRLH [SYP_Y73]', 'phosphorylation enrichment', 0.336),
  ('IHFAIYLLKFS [ARMC9_Y107_YF]', 'phosphorylation enrichment', 0.458),
  ('MAFDRYVAICA [OR52J3_Y125_V128I]', 'phosphorylation enrichment', 0.454),
  ('FGSVDCWEKFF [EEF1AKNMT_Y16_Y16C]', 'phosphorylation enrichment', 0.436),
  ('LKEIRYPPFTD [ALDH3B2_Y362_H361R_YF]', 'phosphorylation enrichment', 0.926),
  ('STEEQYRICQV [EFHC1_Y115_R118C]', 'phosphorylation enrichment', 0.541),
  ('RNDQVYQPLRD [CD3D_Y149]', 'phosphorylation enrichment', 5.01),
  ('KGRAGYTTVAV [RET_Y752]', 'phosphorylation enrichment', 0.319),
  ('SVTCMYSPALN [TP53_Y126_T125M]', 'phosphorylation enrichment', 0.501),
  ('QRHFVYFFSFL [PTEN_Y176_R173H_YF]', 'phosphorylation enrichment', 1.07),
  ('DPLLTHRFPPK [LMNA_Y481_Y481H]', 'phosphorylation enrichment', 0.411),
  ('TGVRDYIHVVD [GALE_Y241]', 'phosphorylation enrichment', 0.426),
  ('KTNVSYFGALD [CACNB4_Y103_C104F]', 'phosphorylation enrichment', 0.554),
  ('ADARMYGVLPR [PLP1_Y207_W212R]', 'phosphorylation enrichment', 0.536),
  ('EGNEQYEGYCV [GRIA3_Y451_R450Q]', 'phosphorylation enrichment', 0.567),
  ('ALVFLSFCIIF [SIGLEC12_Y494_Y494S]', 'phosphorylation enrichment', 0.496),
  ('KVGRVYLFLQP [ITGA2B_Y360_E355K]', 'phosphorylation enrichment', 0.375),
  ('SYPHEYGSQEG [RBM10_Y48_R46H]', 'phosphorylation enrichment', 0.402),
  ('GVMLLYYGRYN [ADGRD1_Y85_T82M]', 'phosphorylation enrichment', 1.24);

----------
Consider the following sequences and their measured SH2 binding enrichment readings.
target: SHP2-C SH2; experiment: SH2 binding enrichment of the phosphorylated peptide, bacterial display (enrichment ratio); higher = better substrate or ligand; peptides without Tyr show the background;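 further: peptide library displayed on the E. coli surface as eCPX fusions, selected cells deep-sequenced, score is each peptide's frequency after selection divided by its frequency in the input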
Observed property: SH2 binding enrichment

INSERT INTO measurements (primary_sequence, observed_property, reading) VALUES
  ('TWEKPYECVQC [ZNF24_Y335_G331W]', 'SH2 binding enrichment', 0.731),
  ('HGEAYYSEVKP [PAK5_Y182]', 'SH2 binding enrichment', 0.795),
  ('GESQGYDIMEP [MSH2_Y863]', 'SH2 binding enrichment', 0.85),
  ('DAGTDYVGISR [FREM2_Y2061]', 'SH2 binding enrichment', 0.758),
  ('MLNTNYHLPPS [MT-ATP8_Y33]', 'SH2 binding enrichment', 0.67),
  ('PTKNDYWAMLA [WWOX_Y287]', 'SH2 binding enrichment', 0.617),
  ('AEEKEYHAEEG [EGFR_Y869_G873E]', 'SH2 binding enrichment', 0.746),
  ('TYGQVYKGPHV [TNIK_Y40_R43P]', 'SH2 binding enrichment', 0.755),
  ('KDPPDYKFQPR [SOX9_Y172_H169P_YF]', 'SH2 binding enrichment', 0.791),
  ('TGVRDYIHVVD [GALE_Y241]', 'SH2 binding enrichment', 0.658),
  ('SEELHYFVQNH [UQCRC2_Y207]', 'SH2 binding enrichment', 0.819),
  ('LANNEYFFQVC', 'SH2 binding enrichment', 0.888),
  ('RNYGTYTAGLS [RHBDD1_Y264_D262G]', 'SH2 binding enrichment', 0.512),
  ('MHDSNCVSKGS [PDGFRA_Y849_Y849C]', 'SH2 binding enrichment', 0.609),
  ('RMDGTYACSFT [FLNB_Y704_YF]', 'SH2 binding enrichment', 0.619);

----------
tested on: Fer (mouse); assay: phosphorylation enrichment, bacterial display (enrichment ratio); higher = better substrate or ligand; peptides without Tyr show the background
Each entry gets -1 if its phosphorylation enrichment stays under 0.7, and 1 if its phosphorylation enrichment is 0.7 or above.

INSERT INTO assay_data (primary_sequence, assigned_label) VALUES
  ('RVLHNYLVWRV [ECEL1_Y400]', 1),
  ('PGQRVYVVAES [SHH_Y316_R321S]', 1),
  ('GYDHSYYFIAT [ESD_Y262]', 1),
  ('KAALSYVSEIG [BPIFB2_Y36]', -1),
  ('FVPSFYHAFSG [ACTN4_Y265_S262P_YF]', -1),
  ('LNPDGYKKAFE [CPXM2_Y427_E428K_YF]', -1),
  ('SLTRLYVGENA [NLRP3_Y861]', -1),
  ('KDHPDYKYQAR [SOX10_Y171_P175A]', -1),
  ('QTEAPYRFIFM [PTPN11_Y511_Q510P_YF]', 1),
  ('SNKELYEKYMI', 1),
  ('MGSYNYLGFPR [SPTLC2_Y178_A182P]', -1),
  ('ATARPYRPYII [LRP5_Y1528]', -1),
  ('FKEQGYHRLPS [RIN1_Y681_P686S_YF]', 1),
  ('SFPREYGSQEG [RBM10_Y48_YF]', -1);

----------
Consider the following sequences and their measured phosphorylation enrichment readings.
biological target: EPHB1 (UniProt P54762); experiment: phosphorylation enrichment, bacterial display (enrichment ratio); higher = better substrate or ligand; peptides without Tyr show the background
Sequence (P54762 whole entry, looked up): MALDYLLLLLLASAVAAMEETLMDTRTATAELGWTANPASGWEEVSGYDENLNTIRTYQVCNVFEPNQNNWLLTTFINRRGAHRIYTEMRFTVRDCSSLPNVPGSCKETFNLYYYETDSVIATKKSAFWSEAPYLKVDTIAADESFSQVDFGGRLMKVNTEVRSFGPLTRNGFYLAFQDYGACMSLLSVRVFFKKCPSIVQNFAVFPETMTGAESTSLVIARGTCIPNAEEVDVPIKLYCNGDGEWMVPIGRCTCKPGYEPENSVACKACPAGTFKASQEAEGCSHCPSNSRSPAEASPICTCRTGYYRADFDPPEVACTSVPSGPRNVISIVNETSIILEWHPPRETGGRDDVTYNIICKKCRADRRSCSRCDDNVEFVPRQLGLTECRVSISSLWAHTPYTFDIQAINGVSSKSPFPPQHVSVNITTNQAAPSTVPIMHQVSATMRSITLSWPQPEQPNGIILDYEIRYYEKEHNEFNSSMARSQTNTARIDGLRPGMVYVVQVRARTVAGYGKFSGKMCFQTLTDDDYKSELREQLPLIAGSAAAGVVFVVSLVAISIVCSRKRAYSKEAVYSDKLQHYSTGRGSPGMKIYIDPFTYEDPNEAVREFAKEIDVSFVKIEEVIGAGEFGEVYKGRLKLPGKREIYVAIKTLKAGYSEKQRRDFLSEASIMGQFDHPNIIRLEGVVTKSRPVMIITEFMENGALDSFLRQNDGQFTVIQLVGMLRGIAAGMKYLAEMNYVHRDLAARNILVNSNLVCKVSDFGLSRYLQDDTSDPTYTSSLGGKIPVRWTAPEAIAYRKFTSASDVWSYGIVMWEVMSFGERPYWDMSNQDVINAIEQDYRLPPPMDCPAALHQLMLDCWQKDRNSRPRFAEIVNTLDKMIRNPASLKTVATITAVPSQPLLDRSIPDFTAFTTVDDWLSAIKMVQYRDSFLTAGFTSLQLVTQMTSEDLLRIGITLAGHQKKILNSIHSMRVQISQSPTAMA
Observed property: phosphorylation enrichment

INSERT INTO results (primary_sequence, reading) VALUES
  ('ILIFHYAKGQP [MPZ_Y82_S78L]', 0.753),
  ('FDGKEYDPVEA [MAPRE2_Y167_YF]', 0.636),
  ('SKKVRYVVSKA [BARD1_Y156]', 0.309),
  ('KFDLMYAKLAF [TUBA1A_Y399_R402L]', 0.726);

----------
system: c-Src; assay: phosphorylation enrichment, bacterial display (enrichment ratio); higher = better substrate or ligand; peptides without Tyr show the background
Each entry gets N if its phosphorylation enrichment stays under 0.4, and Y if its phosphorylation enrichment is 0.4 or above.

INSERT INTO assay_data (primary_sequence, measured_on, assigned_label) VALUES
  ('QLAPQYTYAQG [FLNA_Y1761]', 'c-Src', 'Y'),
  ('FRASFYRKGGC [ALK_Y1283_YF]', 'c-Src', 'Y'),
  ('SPYMLYQYLKQ [RPAP3_Y567_D564Y]', 'c-Src', 'Y'),
  ('TKDTFYKQPVF [GBA_Y451_M455V]', 'c-Src', 'Y'),
  ('GVRLFYRVRES [RB1_Y454_M457R_YF]', 'c-Src', 'N'),
  ('VISNAYVDLAP [HSD17B4_Y602]', 'c-Src', 'Y'),
  ('MKDLTYSSLCF [ALOX5_Y446_A447S]', 'c-Src', 'Y'),
  ('VGTKRYMASEV [ACVRL1_Y375_P378S]', 'c-Src', 'Y'),
  ('HFVDEYDQTIE [KRAS_Y32_P34Q]', 'c-Src', 'Y'),
  ('CTTIHYHYMCN [TP53_Y234_N235H]', 'c-Src', 'Y'),
  ('DRLPSYLDKVR [KRT12_Y139_A137P]', 'c-Src', 'Y'),
  ('SFCFRYRCAAR [SUMF1_Y344_YF]', 'c-Src', 'Y'),
  ('SSPRRYTIAAL [TTR_Y125_G121S]', 'c-Src', 'N');

----------
target: FGFR1 (UniProt P11362); assay: phosphorylation enrichment, bacterial display (enrichment ratio); higher = better substrate or ligand; peptides without Tyr show the background
Sequence (P11362 whole entry, looked up): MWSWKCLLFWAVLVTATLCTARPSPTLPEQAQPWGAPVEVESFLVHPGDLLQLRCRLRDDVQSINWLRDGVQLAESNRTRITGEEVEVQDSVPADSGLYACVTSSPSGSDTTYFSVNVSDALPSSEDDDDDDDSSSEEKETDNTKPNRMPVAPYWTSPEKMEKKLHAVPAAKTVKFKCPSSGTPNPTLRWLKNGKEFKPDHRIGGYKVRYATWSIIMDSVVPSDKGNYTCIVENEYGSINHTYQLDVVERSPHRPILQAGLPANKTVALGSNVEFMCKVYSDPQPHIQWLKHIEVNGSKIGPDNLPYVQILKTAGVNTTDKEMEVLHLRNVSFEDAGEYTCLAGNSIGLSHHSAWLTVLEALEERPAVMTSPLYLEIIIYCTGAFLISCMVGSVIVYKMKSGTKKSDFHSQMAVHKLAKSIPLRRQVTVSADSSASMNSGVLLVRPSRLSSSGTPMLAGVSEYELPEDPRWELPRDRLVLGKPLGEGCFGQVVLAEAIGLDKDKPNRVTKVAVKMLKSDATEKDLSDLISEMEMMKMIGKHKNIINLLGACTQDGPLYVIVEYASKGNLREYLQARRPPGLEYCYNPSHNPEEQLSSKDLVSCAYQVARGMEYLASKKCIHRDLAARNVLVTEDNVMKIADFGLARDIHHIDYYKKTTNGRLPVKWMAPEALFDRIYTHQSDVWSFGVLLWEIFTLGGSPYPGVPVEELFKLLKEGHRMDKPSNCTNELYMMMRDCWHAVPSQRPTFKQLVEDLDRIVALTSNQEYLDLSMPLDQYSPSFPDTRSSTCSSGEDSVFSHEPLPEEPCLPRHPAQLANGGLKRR
Each entry gets criterion not met if its phosphorylation enrichment stays under 0.5, and criterion met if its phosphorylation enrichment is 0.5 or above.

INSERT INTO assay_data (primary_sequence, assigned_label) VALUES
  ('LQKPMYEVQWK [KIT_Y553]', 'criterion met'),
  ('VNYQPYRKHKY [TEX37_Y28_D24N]', 'criterion not met'),
  ('AKFPSYEKNKK [FOXL2_Y91_F90S]', 'criterion met'),
  ('ATARPYRPYII [LRP5_Y1528]', 'criterion not met'),
  ('QGIFGYHHFMQ [UFSP2_Y287_YF]', 'criterion met'),
  ('PIPAAYNKYDQ [CDC73_Y290_R292K]', 'criterion met'),
  ('SGVVPYEPPEV [TP53_Y220_V216G]', 'criterion met'),
  ('SHTPSYCDEWL [RITA1_Y109_S113W]', 'criterion met'),
  ('KSELAYEIFDK [MYOM2_Y1024]', 'criterion met'),
  ('EEGNPYYSSAR [MCCC2_Y520]', 'criterion not met'),
  ('LSGVIYVILRK [PMP22_Y153]', 'criterion not met'),
  ('SMGHRYIEVFR [HNRNPF_Y82_K87R]', 'criterion met'),
  ('RNDQVYQPLRD [CD3D_Y149]', 'criterion met');
